Hello, the source for this data is patent US20030148958A1, in case you need it.

Biological target: T1, corticotropin releasing factor 2 receptor; further: reference of the scale not given here
T1 sequence (Q13324 whole entry, species assumed, looked up): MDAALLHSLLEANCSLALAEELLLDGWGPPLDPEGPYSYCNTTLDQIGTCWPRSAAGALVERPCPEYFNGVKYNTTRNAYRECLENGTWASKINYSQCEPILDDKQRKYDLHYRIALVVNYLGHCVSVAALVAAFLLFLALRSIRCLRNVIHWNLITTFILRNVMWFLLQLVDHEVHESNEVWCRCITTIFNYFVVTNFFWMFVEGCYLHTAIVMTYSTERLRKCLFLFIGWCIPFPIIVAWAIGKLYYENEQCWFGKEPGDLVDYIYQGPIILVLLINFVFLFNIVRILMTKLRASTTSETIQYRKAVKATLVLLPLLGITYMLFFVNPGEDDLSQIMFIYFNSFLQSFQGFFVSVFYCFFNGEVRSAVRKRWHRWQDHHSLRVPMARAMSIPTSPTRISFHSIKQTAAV
Test: cell-based or functional assay
Ends that are not written are not given here.
READOUT KIND: CRF2R Emax (%)
The figure you give is taken to be in %; do not add the unit.

Some binders with known CRF2R Emax results, for comparison:
{"BINDER": "ZGPPISIDLPTQLLRKMIEIEKQEKEKQQAANNRLLLDTI (C-terminal amide) [SEQ ID NO 72]", "CRF2R Emax [%]": 55}
{"BINDER": "IVLSLDVPIGLLQILLEQAAREQATTNARILARV-NH2 [SEQ ID NO 138]", "CRF2R Emax [%]": 46}

API: the following record is the query input.
Dear colleague, I am looking for the recorded CRF2R Emax of the following binder: ZGPPISIDLPTVLLRKMIEIEKQEKEKQQAANNRLLLDTI (C-terminal amide) [SEQ ID NO 46]
100
